Reference source: patent US12540131B2

Each record here notes measured LRRK2 pIC50.
target: GST tagged truncated human mutant G2019S LRRK2 (Homo sapiens (Human), UniProt Q5S007, G2019S); experiment: LRRK2 Km ATP LanthaScreen Assay; type: biochemical; conditions: G2019S LRRK2, 134 μM ATP (Km ATP), mean values
Sequence (Q5S007 970-2527 G2019S): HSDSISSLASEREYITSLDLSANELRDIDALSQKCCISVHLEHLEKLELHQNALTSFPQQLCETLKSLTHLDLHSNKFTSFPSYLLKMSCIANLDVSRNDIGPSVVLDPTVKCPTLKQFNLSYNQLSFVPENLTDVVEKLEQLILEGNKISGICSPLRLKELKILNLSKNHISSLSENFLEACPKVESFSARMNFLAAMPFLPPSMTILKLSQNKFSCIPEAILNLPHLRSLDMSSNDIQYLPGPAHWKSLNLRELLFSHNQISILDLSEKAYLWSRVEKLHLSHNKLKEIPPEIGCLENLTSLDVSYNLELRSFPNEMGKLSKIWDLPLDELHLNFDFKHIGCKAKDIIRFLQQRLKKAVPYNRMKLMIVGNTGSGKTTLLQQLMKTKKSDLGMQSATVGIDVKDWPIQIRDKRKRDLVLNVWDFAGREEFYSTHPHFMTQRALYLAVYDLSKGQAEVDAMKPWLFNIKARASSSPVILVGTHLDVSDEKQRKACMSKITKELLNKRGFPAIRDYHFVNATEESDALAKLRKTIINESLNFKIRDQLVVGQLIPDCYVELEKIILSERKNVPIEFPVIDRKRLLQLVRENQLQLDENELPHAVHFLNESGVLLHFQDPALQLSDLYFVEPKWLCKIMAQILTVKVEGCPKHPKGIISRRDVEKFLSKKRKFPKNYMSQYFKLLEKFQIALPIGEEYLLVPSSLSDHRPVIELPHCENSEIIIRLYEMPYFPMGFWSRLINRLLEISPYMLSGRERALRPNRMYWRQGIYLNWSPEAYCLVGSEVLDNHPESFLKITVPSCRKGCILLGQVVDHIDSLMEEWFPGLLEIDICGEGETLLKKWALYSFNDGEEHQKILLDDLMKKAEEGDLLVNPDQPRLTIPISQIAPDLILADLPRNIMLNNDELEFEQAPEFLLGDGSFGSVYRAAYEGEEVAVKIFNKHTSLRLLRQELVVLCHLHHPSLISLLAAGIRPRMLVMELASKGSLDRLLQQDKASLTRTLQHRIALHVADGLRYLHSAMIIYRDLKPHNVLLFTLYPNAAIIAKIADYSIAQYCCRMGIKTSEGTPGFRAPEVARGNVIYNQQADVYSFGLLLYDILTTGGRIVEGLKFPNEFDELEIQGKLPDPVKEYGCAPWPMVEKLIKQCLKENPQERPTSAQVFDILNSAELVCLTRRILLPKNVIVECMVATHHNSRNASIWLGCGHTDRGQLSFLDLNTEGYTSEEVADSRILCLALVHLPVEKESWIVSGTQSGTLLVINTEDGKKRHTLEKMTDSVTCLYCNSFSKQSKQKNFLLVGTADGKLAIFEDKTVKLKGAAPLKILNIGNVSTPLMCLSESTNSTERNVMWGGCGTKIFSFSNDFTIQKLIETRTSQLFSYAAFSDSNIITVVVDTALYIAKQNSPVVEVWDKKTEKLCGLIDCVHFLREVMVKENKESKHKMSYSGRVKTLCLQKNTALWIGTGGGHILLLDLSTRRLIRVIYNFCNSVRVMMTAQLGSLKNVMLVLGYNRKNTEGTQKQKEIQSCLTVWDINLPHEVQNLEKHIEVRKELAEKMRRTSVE
property: LRRK2 pIC50

compound="FC1COCC1N1CC[C@@H](c2cc3nc(Nc4cnn(C5CC5(F)F)c4Cl)ncc3cc2Cl)C(F)C1 (stereo partly drawn)" property="LRRK2 pIC50" comparisonsign== value=9.01
compound="CC1(n2ncc(Nc3ncc4cc(Cl)c([C@@H]5CCNC[C@H]5F)cc4n3)c2Cl)CC1 (single isomer, unassigned)" property="LRRK2 pIC50" comparisonsign=> value=9.20
compound="O[C@@H]1COC[C@@H]1N1CC[C@H](c2cc3nc(Nc4cnn(C56CC(C5)C6)c4Cl)ncc3cc2Cl)[C@@H](F)C1 (single isomer, unassigned)" property="LRRK2 pIC50" comparisonsign== value=9.05
compound="Cc1c(Nc2ncc3cc(Cl)c(C4CCN(C5COC[C@@H]5O)[C@@H](C)C4)cc3n2)cnn1C1CC1 (single isomer, unassigned)" property="LRRK2 pIC50" comparisonsign== value=8.97
compound="Cc1c(Nc2ncc3cc(Cl)c(C4CCN([C@H]5COC[C@H]5O)CC4)cc3n2)cnn1C12CC(C1)C2 (single isomer, unassigned)" property="LRRK2 pIC50" comparisonsign== value=8.87
compound="Cc1c(Nc2ncc3cc(Cl)c(C4CCN(C5COC[C@H]5O)[C@@H](C)C4)cc3n2)cnn1C1CC1 (single isomer, unassigned)" property="LRRK2 pIC50" comparisonsign=> value=9.20
compound="Cc1cc(Nc2ncc3cc(C)c(C4CCN([C@]5(C)COC[C@@H]5O)CC4)cc3n2)n(C)n1 (single isomer, unassigned)" property="LRRK2 pIC50" comparisonsign== value=9.00
compound="Cn1ncc(Nc2ncc3cc(Cl)c([C@@H]4CCN([C@@]5(C)COC[C@H]5O)C[C@H]4F)cc3n2)c1Cl (single isomer, unassigned) [Ex-4.238]" property="LRRK2 pIC50" comparisonsign== value=7.40
compound="N#CC1CCC(N2CC[C@@H](c3cc4nc(Nc5cnn(C6CC6)c5Cl)ncc4cc3Cl)[C@H](F)C2)C1 (single isomer, unassigned) [Ex-4.109]" property="LRRK2 pIC50" comparisonsign== value=7.99
compound="CN1CC[C@H](c2cc3nc(Nc4cnn(C5(C)CC5)c4Cl)ncc3cc2Cl)[C@@H](O)C1 (single isomer, unassigned)" property="LRRK2 pIC50" comparisonsign== value=7.32
compound="Cn1nc(C(C)(C)C)cc1Nc1ncc2cc(Cl)c(C3CCN([C@]4(C)COC[C@@H]4O)CC3)cc2n1 (single isomer, unassigned)" property="LRRK2 pIC50" comparisonsign== value=8.71
compound="C[C@@]1(N2CCC(c3cc4nc(Nc5ccnn5C5CC5(F)F)ncc4cc3Cl)CC2)COC[C@@H]1O (single isomer, unassigned) [Ex-2.84]" property="LRRK2 pIC50" comparisonsign== value=8.80
